# melting point per record follows
Quantity Measured: melting point

Test Smiles	Quantity Measured	Result
O=C1CC(c2cccc(-n3nncc3CO)c2)=Nc2cc(OCC(F)(F)F)c(-c3ccccc3F)cc2N1	melting point	232 to 234 °C
CN(C)c1cc2c(cc1C(F)(F)F)NC(=O)CC(c1cccc(-c3nocc3CO)c1)=N2	melting point	217 to 219 °C
CN(C)c1cc2c(cc1Cl)NC(=O)CC(c1cccc(-c3csc(N)n3)c1)=N2	melting point	247 to 248 °C
Cc1nc(-c2cccc(C3=Nc4cc(N(C)C)c(C(F)(F)F)cc4NC(=O)C3)c2)co1	melting point	192 to 193 °C

###

# melting point per record follows

Compound	melting point
CCCN(C)c1cc2c(cc1C)NC(=O)CC(c1cccc(-c3nc(CO)co3)c1)=N2 [Example 200]	200 to 202 °C
CNCc1csc(-c2cccc(C3=Nc4cc(N(C)C)c(Cl)cc4NC(=O)C3)c2)n1 [Example 191]	129 to 130 °C
O=C1CC(c2cccc(-n3nncc3CO)c2)=Nc2cc(N3CCCCC3)c(Cl)cc2N1 [Example 50]	246 °C (dec.)
CN(C)c1cc2c(cc1Cl)NC(=O)CC(c1cccc(-c3nc(CO)co3)c1)=N2 [Example 27]	193 to 195 °C

###

# melting point per record follows
Quantity Measured: melting point

Test Smiles	Result
N#Cc1cc(C2=Nc3cc(N4CCCC4)c(F)cc3NC(=O)C2)ccn1	278 to 279 °C
CCCc1oc(C)nc1-c1cccc(C2=Nc3cc(N(C)C)c(C(F)(F)F)cc3NC(=O)C2)c1	211 to 212 °C
CC(C)CN(C)c1cc2c(cc1Cl)NC(=O)CC(c1cccc(-c3nc(CO)cs3)c1)=N2	135 to 136 °C
CN(C)c1cc2c(cc1C(F)(F)F)NC(=O)CC(c1cccc(-c3nc(CO)co3)c1)=N2	197 to 198 °C
CN(C)c1cc2c(cc1C(F)(F)F)NC(=O)CC(c1cccc(-n3cncn3)c1)=N2	228 to 230 °C
Cc1scnc1-c1cccc(C2=Nc3cc(N(C)C)c(C(F)(F)F)cc3NC(=O)C2)c1	214 to 215 °C
CN(C)c1cc2c(cc1C(F)(F)F)NC(=O)CC(c1cccc(-n3nncc3CCO)c1)=N2	172 to 175 °C
CN(C)c1cc2c(cc1C(F)(F)F)NC(=O)CC(c1cccc(-n3ccnn3)c1)=N2	210 to 212 °C
O=C1CC(c2cccc(-c3cc(CO)on3)c2)=Nc2cc(N3CCCC3)c(C(F)(F)F)cc2N1	206 to 208 °C
Cc1cc(-c2cccc(C3=Nc4cc(N(C)C5CC5)c(Cl)cc4NC(=O)C3)c2)on1	195 to 197 °C
Cc1ocnc1-c1cccc(C2=Nc3cc(N(C)C)c(C(F)(F)F)cc3NC(=O)C2)c1	238 to 239 °C
CN(C)c1cc2c(cc1Cl)NC(=O)CC(c1cccc(-c3cc(CO)on3)c1)=N2	211 °C (dec.)

###

Compound	melting point
Cc1cc(-c2cccc(C3=Nc4cc(N(C)C(C)C)c(C#N)cc4NC(=O)C3)c2)on1 [Example 108]	197 °C
CN(C)c1cc2c(cc1C(F)(F)F)NC(=O)CC(c1cccc(-n3nccc3CO)c1)=N2 [Example 86]	228 to 229 °C
CN(C)Cc1cnnn1-c1cccc(C2=Nc3cc(N(C)C)c(Cl)cc3NC(=O)C2)c1 [Example 20]	145 to 160 °C
CCCN(C)c1cc2c(cc1Cl)NC(=O)CC(c1cccc(-n3nncc3CO)c1)=N2 [Example 29]	178 °C (dec.)
CCCN(C)c1cc2c(cc1Cl)NC(=O)CC(c1cccc(-c3nc(CO)cs3)c1)=N2 [Example 184]	211 to 213 °C
CC(C)CN(C)c1cc2c(cc1Cl)NC(=O)CC(c1cccc(-n3ncnc3CO)c1)=N2 [Example 163]	195 °C
CCCN(C)c1cc2c(cc1C(F)(F)F)NC(=O)CC(c1cccc(-c3nnc(CO)s3)c1)=N2 [Example 222]	193 to 194 °C
CN(C)c1cc2c(cc1Cl)NC(=O)CC(c1cccc(-c3csc(Nc4ccncc4)n3)c1)=N2 [Example 197]	231 to 234 °C
CN(c1cc2c(cc1C(F)(F)F)NC(=O)CC(c1ccnc(C#N)c1)=N2)C1CC1 [Example 83]	200 to 205 °C
Cc1noc(-c2cccc(C3=Nc4cc(N(C)C)c(C(F)(F)F)cc4NC(=O)C3)c2)c1CO [Example 69]	207 to 208 °C
CN(C)c1cc2c(cc1Cl)NC(=O)CC(c1cccc(-n3ccnn3)c1)=N2 [Example 2]	222 to 225 °C
CN(C)c1cc2c(cc1C(F)(F)F)NC(=O)CC(c1cccc(-c3nnc(CO)s3)c1)=N2 [Example 204]	242 to 246 °C
CCCN(C)c1cc2c(cc1C)NC(=O)CC(c1cccc(-c3nc(CO)cs3)c1)=N2 [Example 199]	222 to 224 °C
CN(C)c1cc2c(cc1C#Cc1ccccc1)NC(=O)CC(c1cccc(-n3ccnn3)c1)=N2 [Example 5]	185 to 186 °C
CN(C)c1cc2c(cc1Cl)NC(=O)CC(c1cccc(-c3nc(CN4CCOCC4)cs3)c1)=N2 [Example 192]	138 to 143 °C
